Hey, just so you know, these numbers are from patent US7605178B2.

Molecular target: UniProt:P21731
Sequence (P21731 whole entry): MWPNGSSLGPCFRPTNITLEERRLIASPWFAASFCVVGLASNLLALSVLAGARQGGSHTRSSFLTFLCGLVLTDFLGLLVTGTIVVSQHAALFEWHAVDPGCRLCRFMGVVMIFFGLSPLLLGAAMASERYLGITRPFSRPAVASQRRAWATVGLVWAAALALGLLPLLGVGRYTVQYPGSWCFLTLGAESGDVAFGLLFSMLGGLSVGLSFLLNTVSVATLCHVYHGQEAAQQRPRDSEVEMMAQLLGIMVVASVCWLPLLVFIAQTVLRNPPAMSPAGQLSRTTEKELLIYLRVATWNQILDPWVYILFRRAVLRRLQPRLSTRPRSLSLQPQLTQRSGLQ
Experiment: Other receptors: hTP functional EC50
Format: cell-based
Readout: EC50 (nM)

# input Report EC50, nothing else, for this compound: "O=C(O)CCC/C=C\C[C@@H]1[C@@H](CSc2cc(Cl)cc(Cl)c2)[C@H](O)C[C@H]1Cl"
# output 1720

[I] O=C(O)c1ccc(CCC[C@@H]2[C@@H](C[S+]([O-])c3cc(Cl)cc(Cl)c3)[C@H](O)C[C@H]2Cl)s1 (stereo partly shown)
[II] CC(=O)N(C[C@@H]1[C@@H](C/C=C\CCCC(=O)O)[C@H](Cl)C[C@H]1O)c1cc(Cl)cc(Cl)c1
# input Field: lower EC50 | Options: I / II Write down the label attached to your selection.
# output II
(II: 2680 nM, I: 4210 nM)

====

Target: UniProt P43116
Sequence (P43116 whole entry): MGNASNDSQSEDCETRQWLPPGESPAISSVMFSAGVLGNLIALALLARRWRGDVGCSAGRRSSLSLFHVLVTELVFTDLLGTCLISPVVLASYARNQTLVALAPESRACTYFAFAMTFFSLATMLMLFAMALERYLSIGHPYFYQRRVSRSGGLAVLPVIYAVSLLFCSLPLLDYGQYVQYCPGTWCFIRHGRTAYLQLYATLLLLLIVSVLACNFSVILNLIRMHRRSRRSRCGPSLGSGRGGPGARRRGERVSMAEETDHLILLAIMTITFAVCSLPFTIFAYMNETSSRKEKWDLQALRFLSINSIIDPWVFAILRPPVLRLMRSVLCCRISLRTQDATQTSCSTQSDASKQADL
Test: EP2 flipr
Assay type: cell-based
Excerpt: U.S. patent application Ser. No. 11/553,143, filed on Oct. 26, 2006, incorporated by reference herein, describes the methods used to obtain the in vitro data in the table below.
Readout: EC50 (nM)

# input Report EC50, nothing else, for this compound: O=C(O)c1ccc(CCC[C@@H]2[C@@H](C[S+]([O-])c3cc(Cl)cc(Cl)c3)[C@H](O)C[C@H]2Cl)s1 (stereo partly shown)
# output 101

[A] O=C(O)c1ccc(CCC[C@@H]2[C@@H](CSc3cc(Cl)cc(Cl)c3)[C@H](O)C[C@H]2Cl)s1
[B] CC(=O)N(C[C@@H]1[C@@H](C/C=C\CCCC(=O)O)[C@H](Cl)C[C@H]1O)c1cc(Cl)cc(Cl)c1
[C] O=C(O)CCC/C=C\C[C@@H]1[C@@H](CSc2cc(Cl)cc(Cl)c2)[C@H](O)C[C@H]1Cl
[D] O=C(O)c1ccc(CCC[C@@H]2[C@@H](CSc3cc(F)cc(F)c3)[C@H](O)C[C@H]2Cl)s1
# input # desc sort on EC50 across 4 compounds List the labels, following the order given in the request.
# output B, C, D, A
(B: 6370 nM, C: 3360 nM, D: 850 nM, A: 59 nM)

====

Molecular target: hIP (Homo sapiens)
Sequence (P43119 whole entry): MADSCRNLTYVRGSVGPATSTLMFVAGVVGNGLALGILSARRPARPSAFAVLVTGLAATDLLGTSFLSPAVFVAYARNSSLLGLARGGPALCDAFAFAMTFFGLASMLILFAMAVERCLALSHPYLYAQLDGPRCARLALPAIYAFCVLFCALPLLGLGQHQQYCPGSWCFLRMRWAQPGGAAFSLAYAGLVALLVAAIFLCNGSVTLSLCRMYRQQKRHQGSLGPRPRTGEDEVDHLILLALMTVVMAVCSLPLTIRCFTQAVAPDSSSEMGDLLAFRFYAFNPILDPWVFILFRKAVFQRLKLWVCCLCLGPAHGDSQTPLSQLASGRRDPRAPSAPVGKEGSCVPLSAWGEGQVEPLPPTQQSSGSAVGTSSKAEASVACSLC
Test: Other receptors: hIP functional EC50
Assay type: cell-based
Readout: EC50

# input # return EC50 of "O=C(O)CCC/C=C\C[C@@H]1[C@@H](CNc2cc(Cl)cc(Cl)c2)[C@H](O)C[C@H]1Cl" (system: hIP (Homo sapiens))
# output > 10000 nM

# input # return EC50 of "O=C(O)CCC/C=C\C[C@@H]1[C@@H](CSc2cc(Cl)cc(Cl)c2)[C@H](O)C[C@H]1Cl" (system: hIP (Homo sapiens))
# output > 10000 nM

Lab note: next molecule to report on.
# input # return EC50 of "CC(=O)N(C[C@@H]1[C@@H](C/C=C\CCCC(=O)O)[C@H](Cl)C[C@H]1O)c1cc(Cl)cc(Cl)c1" (system: hIP (Homo sapiens))
# output > 10000 nM

====

Parameter EC50: see the listing below.
Molecular target: hEP3A (Homo sapiens)
Sequence (P43115 whole entry): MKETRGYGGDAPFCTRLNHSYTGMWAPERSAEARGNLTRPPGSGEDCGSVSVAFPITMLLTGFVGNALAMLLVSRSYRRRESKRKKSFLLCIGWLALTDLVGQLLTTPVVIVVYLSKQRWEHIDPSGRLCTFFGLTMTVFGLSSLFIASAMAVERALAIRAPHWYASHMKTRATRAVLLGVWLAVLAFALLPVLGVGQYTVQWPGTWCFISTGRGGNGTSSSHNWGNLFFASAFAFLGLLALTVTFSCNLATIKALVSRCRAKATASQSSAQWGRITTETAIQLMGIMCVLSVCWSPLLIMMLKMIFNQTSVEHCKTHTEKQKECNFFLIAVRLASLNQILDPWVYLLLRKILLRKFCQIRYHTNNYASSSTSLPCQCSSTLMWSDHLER
Assay: Other receptors: hEP3A functional EC50
Assay type: cell-based
Excerpt: U.S. patent application Ser. No. 11/553,143, filed on Oct. 26, 2006, incorporated by reference herein, describes the methods used to obtain the in vitro data in the table below.

# input Report EC50, nothing else, for this molecule: "O=C(O)CCC/C=C\C[C@@H]1[C@@H](CSc2cc(Cl)cc(Cl)c2)[C@H](O)C[C@H]1Cl"
# output > 10000 nM

Lab note: next molecule to report on.
# input Report EC50, nothing else, for this molecule: "O=C(O)CCC/C=C\C[C@@H]1[C@@H](CNc2cc(Cl)cc(Cl)c2)[C@H](O)C[C@H]1Cl"
# output > 10000 nM
